system: RXRa homodimer (NR concentration 180 nM); test: PBM binding z-score (relative to random genomic background probes); higher = stronger binding; sequences stand for … in GC…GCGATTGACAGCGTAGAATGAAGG
Binary classification by PBM binding z-score, with 0.9 as an inclusive lower bound for True; all other cases are False.

Use the examples below as a reference point.
| residueSequence | measuredOn | category |
| --- | --- | --- |
| CCAGATAGGTGAGAAGGTAACTCAGCCTCGATTA | RXRa homodimer (NR concentration 180 nM) | False |
| AGAATGAGGATATTAAGATCAGGGAATTGCGGTC | RXRa homodimer (NR concentration 180 nM) | False |
| CCAGACAGGTGAGAAGCTAACTCAGCCTCGATTA | RXRa homodimer (NR concentration 180 nM) | False |
| CAAACTAGGTCAACAGGTCAAAGTCCGCTTCCCG | RXRa homodimer (NR concentration 180 nM) | True |
| TCATATAAGTAAATGCTAGGTGAAAGTCCGATCT | RXRa homodimer (NR concentration 180 nM) | False |

Q) Textbook exercise: given the entry AGTCAAAGTTCATCTATGTAACGTAAGATATGCT , state whether its PBM binding z-score is greater than or equal to 0.9.
A) True

Q) Textbook exercise: given the entry GCGACTGGGGCATCAGCAGGTTACCAGAACTTAA , state whether its PBM binding z-score is greater than or equal to 0.9.
A) False

Q) Textbook exercise: given the entry ATGCCAAGGTGATCGTGAGGTCGTTGATACTAAC , state whether its PBM binding z-score is greater than or equal to 0.9.
A) True

Q) Textbook exercise: given the entry CGTCCAAGGTCAAGGTCAGTGGAAGAGACTCGAA , state whether its PBM binding z-score is greater than or equal to 0.9.
A) True

Q) Textbook exercise: given the entry CCTAGTTGGTCAGGAGGTCACTCACCGGATATGA , state whether its PBM binding z-score is greater than or equal to 0.9.
A) True

Q) Textbook exercise: given the entry CGTCCAAGGTCAGCAGGTCAGTAAAAGCGACGTG , state whether its PBM binding z-score is greater than or equal to 0.9.
A) True

Q) Textbook exercise: given the entry ATACCAAGGTGATCGTGAGGTCGTGGATACTAAC , state whether its PBM binding z-score is greater than or equal to 0.9.
A) True

Q) Textbook exercise: given the entry CGAACTAGGTCATCCAGGAAAGTGAATACATTGA , state whether its PBM binding z-score is greater than or equal to 0.9.
A) True

Q) Textbook exercise: given the entry CAAACTAGGTTACCGGAAGGTCAAAGTCCGCATG , state whether its PBM binding z-score is greater than or equal to 0.9.
A) True

---

test system: RXRa DBDmut IVT, anti-RXR (DBD mutation: RXRa K156A/R161A, NR concentration 90 nM); assay: PBM binding z-score (relative to random genomic background probes); higher = stronger binding; sequences stand for … in GC…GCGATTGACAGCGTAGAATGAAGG
assayReadout: PBM binding z-score
Answers are plain numbers.

| residueSequence | measuredOn | reportedValue |
| --- | --- | --- |
| TTAACAAGGTGAGCTGAGGTCGTTGATCCAACTC | RXRa DBDmut IVT, anti-RXR (DBD mutation: RXRa K156A/R161A, NR concentration 90 nM) | 0.404 |
| TAGCCTGGGTCATTCAGGGGCCAGTATAGAAAGC | RXRa DBDmut IVT, anti-RXR (DBD mutation: RXRa K156A/R161A, NR concentration 90 nM) | 1.25 |
| CCTACTGGGCCAAAAAGGTCATGGATGCCGATAA | RXRa DBDmut IVT, anti-RXR (DBD mutation: RXRa K156A/R161A, NR concentration 90 nM) | 0.231 |
| CCTTACGGGTCACGAGGTTATCGCACGACGAGCG | RXRa DBDmut IVT, anti-RXR (DBD mutation: RXRa K156A/R161A, NR concentration 90 nM) | 1.96 |
| CCTGCTAGGTCATAGTCAGCTAATCTACAGTATG | RXRa DBDmut IVT, anti-RXR (DBD mutation: RXRa K156A/R161A, NR concentration 90 nM) | 2.08 |

// each listed sequence needs a value for PBM binding z-score
1. GCAGACAGGTGAAACGCCGGTAACTCAGGGTGGC
2. AGTCAAAGTTCACAAGGTAACGTAAGATTCAGCT
3. ACTATTAGTTGACTGAGGGCAACCGATACGACGC

A)
1: -0.634; 2: 4.32; 3: 1

// each listed sequence needs a value for PBM binding z-score
1. GCTAGTTGGTCAGTAAAAGGTAACACACCGGTCG
2. TCATATAAGTAAAGGTGAAAGTCGAACGATATGA
3. TCATATAGGTAAAGGTGAAAATCGAACGATATGA
4. GCTAGCAGGCCATTTGGGTCATTCAATGACGGGC

A)
1: 0.148; 2: 0.638; 3: 0.781; 4: 0.394

---

system: PPARa:RXRa (NR concentration 270 nM, RXRa partner concentration 90 nM); assay: PBM binding z-score (relative to random genomic background probes); higher = stronger binding; sequences stand for … in GC…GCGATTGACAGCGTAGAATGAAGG
assayReadout: PBM binding z-score
One number for each entry.

Solved cases (3 shown):
| residueSequence | assayReadout | reportedValue |
| --- | --- | --- |
| ATCTCTAGGTAAGAGTTCAGTGAATCCCGAGGAT | PBM binding z-score | 3.22 |
| CTCGAAAGGTCGTACTCAGGTGAGTATACCAAAC | PBM binding z-score | 4.59 |
| TCATATAGGTAAACAGGTGAACGTCCGTAAGTTA | PBM binding z-score | 2.56 |

// each listed sequence needs a value for PBM binding z-score
1. CCTGCTGGGCCAAAAAGGTCATTGATGCCGATAA
2. TCGAGTAGGTTGGTCGGGGCATTCAGCCAACATA

A)
[4.34, 0.0379]

// each listed sequence needs a value for PBM binding z-score
1. GTACCAAGGTGAAAAGGTCGTTGATGAGTAGGCG
2. GCTGCTAGGTCAGGTTGGTCAGCTTACGGGTACG
3. GCATATAGGTAGTACAAGGTGAAAGTCCGATTGT
4. CAAACTAGATCACGAAAGGTCAAAGTCGAATGAC
5. GGAACGAGAGCAAGTTGATAGCAGAGTTTGATGG
6. CGTCCAAGGTCAGCGAGGTCAGTGAATGCCGAGT
7. CGTCCAAGGACAGAGAGGTCAGTGAATGCCGAGT
8. TCAGACAGGTGAAGGTAACTCACGTACGCAGTCG

A)
1: 3.63; 2: 1.07; 3: 1.16; 4: 5.61; 5: -0.523; 6: 5; 7: 2.13; 8: 1.2

// each listed sequence needs a value for PBM binding z-score
1. CATACAGGGTCAACTAGGCCAGAGTAGGGACGGC
2. TCATATAGGGAAATGCTAGGTGAAAGTCCGATCT
3. CCTTACGGGTCACTCCAGGTAATAGCATCGGAGT
4. GGAACGAGGGCAAAGTTGAGAGCATCTGTCGACG

A)
5.82
0.83
4.59
4.56

---

test system: VDR:RXRa (NR concentration 270 nM, RXRa partner concentration 90 nM); assay: PBM binding z-score (relative to random genomic background probes); higher = stronger binding; sequences stand for … in GC…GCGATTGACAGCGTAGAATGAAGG
Binary classification by PBM binding z-score, with 1 as an inclusive lower bound for Met; all other cases are Not met.

Use the examples below as a reference point.
| residueSequence | measuredOn | category |
| --- | --- | --- |
| ATCTCTAGGTAAAGTTAGTTCAGTGAATGCAAAT | VDR:RXRa (NR concentration 270 nM, RXRa partner concentration 90 nM) | Met |
| CCTAGCAGGCCAACCTGGGTCACTCAAGGCTTGA | VDR:RXRa (NR concentration 270 nM, RXRa partner concentration 90 nM) | Met |
| GCTCGGTGGACAAGGTCAGAGCTTTGTCCGTAGA | VDR:RXRa (NR concentration 270 nM, RXRa partner concentration 90 nM) | Met |
| CCTACTAGGCCAAAAAGGTCATTGATGCCGATAA | VDR:RXRa (NR concentration 270 nM, RXRa partner concentration 90 nM) | Met |

Q) Textbook exercise: given the entry TCATATAGGGAAACAGGTGAAAGTCCGTAAGTTA , state whether its PBM binding z-score is greater than or equal to 1.
A) Not met

Q) Textbook exercise: given the entry ACTATTAGTTGAGACGAGGGCAACCGTTAGGTTG , state whether its PBM binding z-score is greater than or equal to 1.
A) Not met

Q) Textbook exercise: given the entry TCTAGTTGGACACGGAGGTCACACACGACGGGTA , state whether its PBM binding z-score is greater than or equal to 1.
A) Met

Q) Textbook exercise: given the entry CGTCCAAGGTCAGCAGGTAAGTGAAAGCGACGTG , state whether its PBM binding z-score is greater than or equal to 1.
A) Met

Q) Textbook exercise: given the entry CGAACTAGATCAGAACAGGACAGTGAAGGATGAT , state whether its PBM binding z-score is greater than or equal to 1.
A) Not met

Q) Textbook exercise: given the entry CGAACGAGGGCATGAGATGATAGCAAATGCCGAT , state whether its PBM binding z-score is greater than or equal to 1.
A) Not met

Q) Textbook exercise: given the entry ATCTCTAGGTAAGACTCAGTTCTGTGAAGAACGC , state whether its PBM binding z-score is greater than or equal to 1.
A) Not met

Q) Textbook exercise: given the entry CGTCCAAGGTTAGAGAGGTCAGTGAATGCCGAGT , state whether its PBM binding z-score is greater than or equal to 1.
A) Met

Q) Textbook exercise: given the entry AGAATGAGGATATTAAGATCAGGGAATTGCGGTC , state whether its PBM binding z-score is greater than or equal to 1.
A) Not met

Q) Textbook exercise: given the entry GCTGCTAGGTCAACTCATGGTCAGCTAAAGCTCG , state whether its PBM binding z-score is greater than or equal to 1.
A) Met

Q) Textbook exercise: given the entry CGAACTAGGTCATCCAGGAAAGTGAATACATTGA , state whether its PBM binding z-score is greater than or equal to 1.
A) Met

Q) Textbook exercise: given the entry CGTCCGAGGTCAGCAGGTCAGTGAAAGCGACGTG , state whether its PBM binding z-score is greater than or equal to 1.
A) Met

Q) Textbook exercise: given the entry GCTGCTAGATCAGGTTGGTCAGCTAACGGGTACG , state whether its PBM binding z-score is greater than or equal to 1.
A) Not met

Q) Textbook exercise: given the entry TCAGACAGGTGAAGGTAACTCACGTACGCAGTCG , state whether its PBM binding z-score is greater than or equal to 1.
A) Not met
